Reported composite z-score values for a set of compounds
target: Focal adhesion kinase 1 (Homo sapiens); experiment: small-molecule microarray binders of FAK, primary screen, biochemical, 635/667 nm fluorescence, BSA, DTT (AID 1130); details: PTK2 binding, 635 nm fluorescence, higher = more signal;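 also: composite of spot emission at 667 nm and signal to noise over triplicate slides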
Give a plain numeric answer without units written out.

smiles.input: Cc1ccc(S(=O)(=O)c2cc3oc2CC[C@@H](CO)NC(=O)N(C)Cc2cn(nn2)C[C@H](Cc2ccccc2)NC3=O)cc1
composite z-score: 2.07

smiles.input: C=CCc1cccc([C@@H]2[C@@H](C)CC[C@H]3C(=O)N4[C@H](c5cccc(CC=C)c5)[C@@H](C)CC[C@H]4C(=O)N23)c1
composite z-score: 0.19

smiles.input: O=C1C[C@@](C(=O)NC2CC2)(c2ccc([N+](=O)[O-])cc2)[C@@H](c2ccc(CO)cc2I)N1CC12CC3CC(CC(C3)C1)C2
composite z-score: 0.32

Next, consider the following compound.
Quick one: composite z-score for C[N+](C)(C)CCCCNC(=O)[C@H]1C[C@H]2C(=O)NCC(=O)N2[C@H]1c1cccc(OCCO)c1 ? -0.0181

----------
molecular target: Dickkopf-related protein 1 (Homo sapiens) (UniProt O94907); experiment: DKK1 binders on small-molecule microarrays, primary screen, biochemical, small-molecule microarray, 635 nm fluorescence scan (AID 1106); details: DKK1 binding, higher = more signal;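 also: score merges emission near 667 nm with signal to noise over three replicate slides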
Sequence (O94907 whole entry, looked up): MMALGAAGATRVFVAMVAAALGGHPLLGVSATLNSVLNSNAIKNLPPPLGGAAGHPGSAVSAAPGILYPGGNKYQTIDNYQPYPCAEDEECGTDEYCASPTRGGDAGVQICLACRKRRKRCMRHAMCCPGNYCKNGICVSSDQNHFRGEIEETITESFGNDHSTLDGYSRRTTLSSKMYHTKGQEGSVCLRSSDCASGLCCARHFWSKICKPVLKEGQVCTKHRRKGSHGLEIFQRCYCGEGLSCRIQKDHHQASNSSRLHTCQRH
Threshold rule: composite z-score greater than or equal to 0.5 is Fulfilled; below that, Not fulfilled.

compound: COCCOC(=O)N1C(=O)[C@@]2(c3cc(C#CCCO)ccc31)[C@H](c1ccc(O)cc1)N1[C@H](c3ccccc3)[C@H](c3ccccc3)OC(=O)[C@H]1[C@@H]2C(=O)Nc1nc2ccccc2s1
target.or.test.system: Dickkopf-related protein 1 (Homo sapiens) (UniProt O94907)
class.name: Fulfilled

compound: O=C1OCC=C[C@H]2OC34C=CCN(Cc5ccccc5)C(=O)[C@H]3N(CCO)C(=O)[C@@H]4[C@@H]12 (some centres undefined)
target.or.test.system: Dickkopf-related protein 1 (Homo sapiens) (UniProt O94907)
class.name: Not fulfilled

compound: C[C@@H]1NC(=O)CC=C[C@@H](C)[C@@H]2C=C[C@H](O)[C@@H](COC(=O)[C@H](C)NC(=O)CC=C[C@@H](C)[C@@H]3C=C[C@H](O)[C@@H](COC1=O)O3)O2
target.or.test.system: Dickkopf-related protein 1 (Homo sapiens) (UniProt O94907)
class.name: Fulfilled

compound: CCCCO[C@H]1C[C@H]2C(Br)=C[C@@]1(CO)C(=O)[C@]21CO1
target.or.test.system: Dickkopf-related protein 1 (Homo sapiens) (UniProt O94907)
class.name: Not fulfilled

compound: C=CC[C@@]1(C(=O)NCC(O)CO)N=C(c2ccc(OCCCO)cc2)O[C@@H]1c1ccccc1CN=[N+]=[N-] (some centres undefined)
target.or.test.system: Dickkopf-related protein 1 (Homo sapiens) (UniProt O94907)
class.name: Not fulfilled

compound: O=C(N1CCCCC1)[C@@]1(CCS(=O)(=O)c2ccccc2)N=C(c2ccc(OCCCO)cc2)O[C@H]1c1ccccc1
target.or.test.system: Dickkopf-related protein 1 (Homo sapiens) (UniProt O94907)
class.name: Not fulfilled

Quick check, composite z-score >= 0.5? CCOC(=O)C[C@H]1[C@H](OC(=O)c2ccccc2-c2ccccc2)[C@@H](NC(=O)c2ccc(-c3ccccc3)cc2)c2cc(OCCCO)ccc2N1C(=O)Cc1ccc(OC)cc1 Not fulfilled

Quick check, composite z-score >= 0.5? O=C1c2ccccc2[C@@]2(Cc3ccccc3N(CC(F)(F)F)C2=O)[C@H](c2ccc(CO)cc2)N1C1CCCCC1 Fulfilled

----------
Reported composite z-score values for a set of molecules
tested on: PRMT1 (protein arginine N-methyltransferase 1); assay: PRMT1 binders on small-molecule microarrays, primary screen, biochemical, small-molecule microarray, 635 nm fluorescence (AID 1088); conditions: small-molecule microarray binding, higher = more signal;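 also: binding of Prmt1 protein to compounds spotted on small-molecule microarray slides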

molecule: C=CCNC(=O)[C@H]1[C@@H]2C(=O)O[C@@H](c3ccccc3)[C@@H](c3ccccc3)N2[C@@H](c2ccccc2OCCO)[C@]12C(=O)N(C(=O)OCCOC)c1ccc(C#CCC(C(=O)OC)C(=O)OC)cc12
composite z-score: 1.55

molecule: COc1ccc([C@H]2C[C@H]3C(Br)=C[C@]2(OC)C(=O)[C@]32CO2)cc1
composite z-score: -0.378

molecule: COC(=O)C1=C(C)N(Cc2ccccc2)c2c(C(=O)OC)c(C(=O)OC)c(C(=O)OC)c(=O)n2[C@@H]1c1ccccc1
composite z-score: 0.269

molecule: C[C@@H]1CC[C@H]2C(=O)N3CCC[C@H]3C(=O)N2[C@H]1c1ccc(Br)cc1
composite z-score: -0.455

Quick one: composite z-score for Cc1ccc(S[C@]2(C(=O)NCCCN(C)C)CC(=O)N(C3CCCCC3)[C@@H]2c2ccc(CO)cc2I)cc1 ? -0.167

Quick one: composite z-score for O=C1OCCC/C=C\[C@H]2OC34C=CCN(CCN5CCOCC5)C(=O)[C@H]3N(CCCCCO)C(=O)[C@@H]4C12 (some centres undefined) ? -0.706

Quick one: composite z-score for CCN1C(C)=C(C(=O)OC)[C@@H](c2ccccc2)N2C(=O)[C@](O)(C(=O)OC)[C@@H](c3ccccc3)C(C(C)=O)=C12 ? -0.107

Quick one: composite z-score for O=[N+]([O-])c1ccc(C[n+]2ccc3ccc(O)cc3c2)o1 ? 0.536

Quick one: composite z-score for COCCOC(=O)N1C(=O)[C@@]2(c3cc(C#CCC(C(=O)OC)C(=O)OC)ccc31)[C@H](C(=O)N1CCN(c3ncccn3)CC1)[C@H]1C(=O)O[C@H](c3ccccc3)[C@H](c3ccccc3)N1[C@@H]2c1ccc(O)cc1 ? 1.54

Quick one: composite z-score for CO[C@@H]1COC(=O)[C@H](COCc2ccccc2)NC(=O)CC=C[C@@H](C)[C@H](OC)COC(=O)[C@H](COCc2ccccc2)NC(=O)CC=C[C@H]1C ? 0.0472

Quick one: composite z-score for CCCCCCc1nc(C2CC2)c(C)c2c1[Si](C(C)C)(C(C)C)OC2 ? -1.09

Quick one: composite z-score for C[C@H]1COC(=O)[C@@H]2CCCN2C(=O)[C@@H](C)COC(=O)[C@@H]2CCCN2C1=O ? -0.8

Quick one: composite z-score for O=C(CS)NCCCCCCNC(=O)[C@@H]1C[C@@H]2C(=O)N[C@@H](Cc3ccccc3)C(=O)N2[C@@H]1c1ccc(O)cc1 ? 1.53

Quick one: composite z-score for C[C@@H]1NC(=O)[C@H](Cc2ccccc2)NC(=O)[C@@]23C(=O)N[C@@H](Cc4ccccc4)C2[C@H](C)[C@@]2(C)O[C@H]2C3/C=C/C/C=C\CNC1=O (some centres undefined) ? -0.747

Quick one: composite z-score for CC(=O)NCCCC[C@@H]1NC(=O)[C@H]2C[C@@H](C(=O)NCCCCCCN(C)C)[C@@H](c3cccc(OCCO)c3)N2C1=O ? 1.53

Quick one: composite z-score for C[C@H]1NC(=O)[C@@H](C)NC(=O)[C@@]23C(=O)N[C@@H](Cc4ccccc4)C2[C@H](C)[C@@]2(C)O[C@H]2C3/C=C/C/C=C\CNC1=O (some centres undefined) ? -0.0842

Quick one: composite z-score for CC(C)CNC(=O)[C@@]1(C)c2ccccc2C(=O)N(Cc2ccc(OC(F)(F)F)cc2)[C@H]1c1ccc(CO)cc1 ? -0.379

Quick one: composite z-score for Cc1cc(C)c(C(O)C2C=CC3C(=O)N(C)C(=O)C3N2N2CCCCC2)c(C)c1 (centres undefined) ? 1.54

----------
Reported composite z-score values for a set of compounds
experiment: binders of probe aFST on microarray, primary screen, stem cell growth factor project, biochemical, small-molecule microarray, fluorescence 635/667 (AID 1086); conditions: higher = more signal;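 also: score merges 667 nm fluorescence with signal-to-noise of each printed compound spot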
Give a plain numeric answer without units written out.

# count of solved cases: 5
compound: CC1CC/C=C\[C@H]2OC34C=CCN(Cn5nnc6ccccc65)C(=O)[C@H]3N(C(C)CO)C(=O)[C@@H]4C2C(=O)O1 (some centres not stated)
composite z-score: -0.134
//
compound: CCN1C(C)=C(C(=O)OC)[C@@H](c2ccccc2)N2C(=O)[C@](O)(C(=O)OC)[C@@H](c3ccccc3)C(C(=O)c3ccccc3)=C12
composite z-score: 0.0486
//
compound: O=C1O[C@@H](c2ccccc2)[C@@H](c2ccccc2)N2[C@@H](c3ccc(OCCO)cc3)[C@]3(C(=O)Nc4ccc(C#CCCO)cc43)[C@@H](C(=O)N3CCN(c4ncccn4)CC3)[C@H]12
composite z-score: 0.488
//
compound: C=CCOC(=O)[C@@H]1[C@H]2C(=O)O[C@H](c3ccccc3)[C@H](c3ccccc3)N2[C@H](c2ccc(OCCOC(=O)[C@H]3C[C@H]4C(=O)N[C@@H](CCCCNC(C)=O)C(=O)N4[C@H]3c3ccc(O)cc3)cc2)[C@@]12C(=O)Nc1ccc(I)cc12
composite z-score: -0.0007
//
compound: [N-]=[N+]=NCc1ccccc1[C@H]1OC(c2ccc(OCCCO)cc2)=N[C@@]1(Cc1ccccc1N=[N+]=[N-])C(=O)NCc1ccccc1
composite z-score: 0.939

Quick one: composite z-score for C=CC[C@]1(C(=O)O)N=C(c2ccc(OCCCO)cc2)O[C@H]1c1ccccc1N=[N+]=[N-] ? 0.489

Quick one: composite z-score for COc1ccc([Si](C)(C)[C@H]2[C@H](CC(=O)N(CCO)Cc3ccccc3)O[C@@]3(C(=O)N(C)c4ccccc43)[C@@H]2C)cc1 ? 0.291

Quick one: composite z-score for O=C1O[C@@H](c2ccccc2)[C@@H](c2ccccc2)N2[C@@H](c3ccccc3OCCO)[C@]3(C(=O)Nc4ccc(C#CC5=CCCCC5)cc43)[C@@H](C(=O)O)[C@H]12 ? 0.415

Quick one: composite z-score for C=CCc1cccc([C@H]2N[C@H](C(=O)O)CC[C@@H]2C)c1 ? -0.099

Quick one: composite z-score for COCCOC(=O)N1C(=O)[C@@]2(c3cc(C#CCNC(N)=O)ccc31)[C@H](c1ccccc1OCCO)N1[C@H](c3ccccc3)[C@H](c3ccccc3)OC(=O)[C@H]1[C@@H]2C(=O)NC[C@H](O)c1ccccc1 ? 0.512

Quick one: composite z-score for CO[C@H]1COC(=O)[C@@H](Cc2ccccc2)NC(=O)[C@@H](C)COC(=O)CC=C[C@@H]1C ? -0.0629

Quick one: composite z-score for CC(C)C[C@@H]1NC(=O)[C@H](CC(C)C)NC(=O)[C@@]23C(=O)N[C@@H](Cc4ccccc4)C2[C@H](C)[C@@]2(C)O[C@H]2C3/C=C/CC/C=C/CNC1=O (some centres not stated) ? 0.0226
